system tested: 17β-hydroxysteroid dehydrogenase type 3 (17β-HSD type 3) (Homo sapiens)
Construct: expressed in transfected cells; host or cells: MCF-7
Sequence (P37058 whole entry): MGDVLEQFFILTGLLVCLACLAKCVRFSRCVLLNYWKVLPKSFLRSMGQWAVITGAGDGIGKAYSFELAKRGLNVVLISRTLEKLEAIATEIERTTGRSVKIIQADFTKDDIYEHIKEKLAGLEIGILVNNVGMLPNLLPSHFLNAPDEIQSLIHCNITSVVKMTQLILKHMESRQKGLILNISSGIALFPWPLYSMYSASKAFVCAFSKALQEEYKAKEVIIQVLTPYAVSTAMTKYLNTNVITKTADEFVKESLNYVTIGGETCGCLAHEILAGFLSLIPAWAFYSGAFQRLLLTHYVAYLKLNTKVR
assay summary: Inhibition of 17β-HSD type 3 in MCF-7 cells stably expressing the isoenzyme (tritium labeled androstenedione conversion, HPLC)
Type: cell-based
settings: MCF7; 1 μM test compound; MCF-7 cells expressing 17β-HSD type 3; 2 nM tritium labeled androstenedione; read-out: % Inhibition HSD3 1 μM
measure: inhibition at 1 µM (%)
Answers are plain numbers, in %.

CCCCn1c(-c2cccs2)nc2sc3c(c2c1=O)CCCC3 = 3.1
O=C(OCCn1c(-c2cccs2)nc2sc3c(c2c1=O)CCC(Br)C3=O)c1cccs1 (stereo not shown) = 21.9
O=C1CCCc2c1sc1nc(-c3ccc(Br)s3)n(Cc3ccccc3)c(=O)c21 = 12.1
COc1cc(-c2nc3sc4c(OC(C)=O)cccc4c3c(=O)n2Cc2ccccc2)c(Br)c(OC)c1OC = 32.9
COc1cc(-c2nc3sc4c(O)cccc4c3c(=O)n2Cc2ccccc2)c(Br)c(OC)c1OC = 12.4

// for each compound below, give its inhibition at 1 µM
1. CCCCn1c(-c2cc(OC)c(OC)c(OC)c2)nc2sc3c(c2c1=O)CC(C)CC3 (stereo not shown)
2. COc1cc(-c2nc3sc4c(c3c(=O)n2Cc2ccccc2)CC(C)C(Br)C4=O)c(Br)c(OC)c1OC (stereo not shown)
3. COc1cc(-c2nc3sc4c(c3c(=O)n2Cc2ccccc2)CCC(Br)(Br)C4=O)c(Br)c(OC)c1OC

Return:
1. -5.3
2. -2.4
3. 33.7

// for each compound below, give its inhibition at 1 µM
1. COc1ccc(-c2nc3sc4c(c3c(=O)n2Cc2ccccc2)CCC(Br)C4=O)cc1 (stereo not shown)
2. CCSC1=C(CO)CCc2c1sc1nc(-c3ccc(OC)cc3)n(Cc3ccccc3)c(=O)c21
3. CCCCn1c(-c2cc(OC)c(OC)c(OC)c2)nc2sc3c(c2c1=O)CCC(Br)C3=O (stereo not shown)
4. CCCc1nc2sc3c(c2c(=O)n1Cc1cc(Br)ccc1OC)CCC(Br)(Br)C3=O

Return:
14.7
32.7
13
-5.9

// for each compound below, give its inhibition at 1 µM
1. O=c1c2c(nc(-c3cccs3)n1CCO)sc1c(O)c(Br)ccc12
2. O=C1c2sc3nc(-c4ccccc4)n(Cc4ccccc4)c(=O)c3c2CCC1Br (stereo not shown)

Return:
[31, 16]

// for each compound below, give its inhibition at 1 µM
1. COCc1nc2sc3c(c2c(=O)n1Cc1ccccc1)CCC(C=O)=C3Cl
2. CCCCn1c(-c2cc(OC)c(OC)c(OC)c2)nc2sc3c(c2c1=O)CCCC3=O
3. Cc1nc2sc3c(c2c(=O)n1-c1ccccc1)CCCC3=O
4. COc1cc(-c2nc3sc4c(c3c(=O)n2Cc2ccccc2)CCC(Br)C4=O)c(Br)c(OC)c1OC (stereo not shown)
5. CCOC(=O)c1nc2sc3c(c2c(=O)n1-c1ccccc1)CCCC3

Return:
1. 15.8
2. 11.3
3. 25.7
4. 39.7
5. 3.8

// for each compound below, give its inhibition at 1 µM
1. COc1cc(-c2nc3sc4c(Sc5ccccc5)c(C=O)ccc4c3c(=O)n2Cc2ccccc2)cc(OC)c1OC
2. CCCc1nc2sc3c(c2c(=O)n1Cc1ccc(Br)o1)CCC(Br)(Br)C3=O
3. COc1cc(-c2nc3sc4c(O)cccc4c3c(=O)n2Cc2ccccc2)c(Cl)c(OC)c1OC
4. O=c1c2c(nc(-c3ccccc3)n1Cc1ccccc1)sc1c(O)c(Br)ccc12
5. CCCCn1c(-c2cc(OC)c(OC)c(OC)c2)nc2sc3c(c2c1=O)CCCC3
6. COC(=O)c1nc2sc3c(c2c(=O)n1Cc1ccccc1)CCCC3=O
7. CCCCn1c(-c2cc(OC)c(OC)c(OC)c2Br)nc2sc3c(O)cc(C)cc3c2c1=O

Return:
[2.7, -5, 8.3, 4.7, -2.2, 9.6, 5.8]

// for each compound below, give its inhibition at 1 µM
1. COc1cc(-c2nc3sc4c(c3c(=O)n2Cc2ccccc2)C(C)CCC4=O)cc(OC)c1OC (stereo not shown)
2. COc1cccc(-c2nc3sc4c(c3c(=O)n2Cc2ccccc2)CCCC4)c1
3. O=c1c2c3c(sc2nc(-c2cccs2)n1Cc1ccccc1)CCCC3
4. COc1cc(-c2nc3sc4c(c3c(=O)n2Cc2ccccc2)C(C)CCC4)cc(OC)c1OC (stereo not shown)
5. COc1cc(-c2nc3sc4c(O)cccc4c3c(=O)n2Cc2ccccc2)cc(OC)c1OC

Return:
[24.7, -4.3, 20, 8.1, 32.2]

Reference source: patent US7524853B2
